# CDK2 % Inhibition at 0.03 μM listing for each entry below
target-entity: CDK2/Cyclin A (Homo sapiens, UniProt P24941)
assay-summary: Inhibition of CDK2/Cyclin A Retinoblastoma Kinase Activity
Assay type: biochemical
test-context: 0.03 μM compound; Table 4

>  <compound-structure>
CN(C(=O)N1CCC(Nc2nc(N)c(C(=O)c3c(F)cccc3F)s2)CC1)c1ccccc1

>  <CDK2 % Inhibition at 0.03 μM / %>
−7

$$$$
>  <compound-structure>
Nc1nc(NC2CCN(C(=O)c3ccccc3F)CC2)sc1C(=O)c1c(F)cccc1F

>  <CDK2 % Inhibition at 0.03 μM / %>
30

$$$$
>  <compound-structure>
Nc1nc(NC2CCN(C(=O)c3ccccc3I)CC2)sc1C(=O)c1c(F)cccc1F

>  <CDK2 % Inhibition at 0.03 μM / %>
24

$$$$
>  <compound-structure>
Nc1nc(NC2CCN(C(=O)Oc3ccc([N+](=O)[O-])cc3)CC2)sc1C(=O)c1c(F)cccc1F

>  <CDK2 % Inhibition at 0.03 μM / %>
63

$$$$
>  <compound-structure>
Nc1nc(NC2CCN(C(=O)C3CC3)CC2)sc1C(=O)c1c(F)cccc1F

>  <CDK2 % Inhibition at 0.03 μM / %>
−2

$$$$
>  <compound-structure>
Nc1nc(NC2CCN(C(=O)c3ccc(F)cc3)CC2)sc1C(=O)c1c(F)cccc1F

>  <CDK2 % Inhibition at 0.03 μM / %>
18

$$$$
>  <compound-structure>
Nc1nc(NC2CCN(C(=O)c3ccc(I)cc3)CC2)sc1C(=O)c1c(F)cccc1F

>  <CDK2 % Inhibition at 0.03 μM / %>
60

$$$$
>  <compound-structure>
Nc1nc(NC2CCN(C(=O)c3c(F)cccc3F)CC2)sc1C(=O)c1c(F)cccc1F

>  <CDK2 % Inhibition at 0.03 μM / %>
−20

$$$$
>  <compound-structure>
Nc1nc(NC2CCN(C(=O)c3ccc([N+](=O)[O-])cc3)CC2)sc1C(=O)c1c(F)cccc1F

>  <CDK2 % Inhibition at 0.03 μM / %>
28

$$$$
>  <compound-structure>
Nc1nc(NC2CCN(C(=O)Oc3ccccc3)CC2)sc1C(=O)c1c(F)cccc1F

>  <CDK2 % Inhibition at 0.03 μM / %>
59

$$$$
>  <compound-structure>
Nc1nc(NC2CCN(C(=O)c3ccccc3C(F)(F)F)CC2)sc1C(=O)c1c(F)cccc1F

>  <CDK2 % Inhibition at 0.03 μM / %>
−12

$$$$
>  <compound-structure>
Nc1nc(NC2CCN(C(=O)c3cnc4ccccc4n3)CC2)sc1C(=O)c1c(F)cccc1F

>  <CDK2 % Inhibition at 0.03 μM / %>
13

$$$$
>  <compound-structure>
Nc1nc(NC2CCN(C(=O)c3ccc(F)c(F)c3)CC2)sc1C(=O)c1c(F)cccc1F

>  <CDK2 % Inhibition at 0.03 μM / %>
52

$$$$
>  <compound-structure>
Cc1ccccc1C(=O)N1CCC(Nc2nc(N)c(C(=O)c3c(F)cccc3F)s2)CC1

>  <CDK2 % Inhibition at 0.03 μM / %>
−11

$$$$
>  <compound-structure>
CCOC(=O)CCC(=O)N1CCC(Nc2nc(N)c(C(=O)c3c(F)cccc3F)s2)CC1

>  <CDK2 % Inhibition at 0.03 μM / %>
24

$$$$
>  <compound-structure>
Nc1nc(NC2CCN(C(=O)COCc3ccccc3)CC2)sc1C(=O)c1c(F)cccc1F

>  <CDK2 % Inhibition at 0.03 μM / %>
9

$$$$

###

Tested on: HCT-116 cell line
assay-summary: Inhibition of cell growth, tetrazolium salt (MTT) assay
Type: cell-based
test-context: Homo sapiens, HCT-116, 120 h, first HCT-116 column (c4); MTT, three to five days; read-out: HCT-116 IC50
pIC50: −log10 of the molar value. Where a name gives a salt, the structure may show the parent alone.
outcome-measure: pIC50

>  <molecule>
Cn1cnc(S(=O)(=O)N2CCC(Nc3nc(N)c(C(=O)c4c(F)cccc4F)s3)CC2)c1

>  <comparison-symbol>
=

>  <meas-value>
5.89

$$$$
>  <molecule>
Nc1nc(NC2CCN(S(=O)(=O)c3ccc(CCNc4ccccc4O)nc3)CC2)sc1C(=O)c1c(F)cccc1F [Example N1, Trifluoroacetic Acid Salt]

>  <comparison-symbol>
=

>  <meas-value>
6.07

$$$$
>  <molecule>
Nc1nc(NC2CCN(C(=O)c3ccc(F)c(Cl)c3)CC2)sc1C(=O)c1c(F)cccc1F

>  <comparison-symbol>
=

>  <meas-value>
7.01

$$$$
>  <molecule>
Nc1nc(NC2CCN(C(=O)CCN3CCCCC3)CC2)sc1C(=O)c1c(F)cccc1F

>  <comparison-symbol>
<

>  <meas-value>
5.30

$$$$
>  <molecule>
Nc1nc(NC2CCN(C(=O)c3sccc3Cl)CC2)sc1C(=O)c1c(F)cccc1F

>  <comparison-symbol>
=

>  <meas-value>
6.34

$$$$
>  <molecule>
CN(C)CC#Cc1ccc(S(=O)(=O)N2CCC(Nc3nc(N)c(C(=O)c4c(F)cccc4F)s3)CC2)cn1

>  <comparison-symbol>
=

>  <meas-value>
7.80

$$$$
>  <molecule>
Nc1nc(NC2CCN(S(=O)(=O)CCNCc3c(F)cccc3F)CC2)sc1C(=O)c1c(F)cccc1F

>  <comparison-symbol>
=

>  <meas-value>
6.70

$$$$

###

This listing pairs compounds with measured Ki.
target-entity: CDK2/Cyclin A (Homo sapiens, UniProt P24941)
assay-summary: Inhibition of CDK2/Cyclin A Retinoblastoma Kinase Activity
test-context: apparent Ki, CDK2/proteolyzed cyclin A, Rb fragment substrate, 25 μM ATP
Structures can show the parent of a compound that is named as a salt.
outcome-measure: Ki (nM)

>  <compound>
CN(C)CCCc1ccc(S(=O)(=O)N2CCC(Nc3nc(N)c(C(=O)c4c(F)cccc4F)s3)CC2)cn1 [Example I12]

>  <units-of-measure>
nM

>  <comparison-symbol>
=

>  <meas-value>
1.3

$$$$
>  <compound>
Cn1cnc(-c2ccc(S(=O)(=O)N3CCC(Nc4nc(N)c(C(=O)c5c(F)cccc5F)s4)CC3)cc2)c1 [Example F31, Trifluoroacetic Acid Salt]

>  <units-of-measure>
nM

>  <comparison-symbol>
<

>  <meas-value>
1

$$$$
>  <compound>
CN(CCO)c1ccc(S(=O)(=O)N2CCC(Nc3nc(N)c(C(=O)c4c(F)cccc4F)s3)CC2)cn1 [Example G10, Trifluoroacetic Acid Salt]

>  <units-of-measure>
nM

>  <comparison-symbol>
<

>  <meas-value>
1

$$$$
>  <compound>
CN(CCS(=O)(=O)N1CCC(Nc2nc(N)c(C(=O)c3c(F)cccc3F)s2)CC1)C1CCCC1 [Example K30, Trifluoroacetic Acid Salt]

>  <units-of-measure>
nM

>  <comparison-symbol>
=

>  <meas-value>
9.4

$$$$
>  <compound>
Nc1nc(NC2CCN(S(=O)(=O)c3ccc(CCN4CCC[C@H]4CO)nc3)CC2)sc1C(=O)c1c(F)cccc1F [Example N9, Hydrochloride Salt]

>  <units-of-measure>
nM

>  <comparison-symbol>
=

>  <meas-value>
0.8

$$$$
>  <compound>
Nc1nc(NC2CCN(C(=O)/C=C/c3ccncc3)CC2)sc1C(=O)c1c(F)cccc1F [Example D6]

>  <units-of-measure>
nM

>  <comparison-symbol>
=

>  <meas-value>
160

$$$$

###

target-entity: CDK2/Cyclin A (Homo sapiens)
assay-summary: Inhibition of CDK2/Cyclin A Retinoblastoma Kinase Activity
Format: biochemical
test-context: at 0.03 μM
Experimental: Cyclin-dependent kinase activity was measured by quantifying the enzyme-catalyzed, time-dependent incorporation of radioactive phosphate from [^32P]ATP or [^33P]ATP into a protein substrate. […] The phosphorylated substrate was then captured on a nitrocellulose or phosphocellulose membrane using a 96-well filtration manifold, and unincorporated radioactivity was removed by repeated washing with 0.85% phosphoric acid. Radioactivity was quantified by exposing the dried membranes to a phosphorimager. […]
CDK2 % Inhibition at 0.03 μM values by entry

>  <compound-structure>
Nc1nc(NC2CCN(C(=O)c3ccc(F)cc3)CC2)sc1C(=O)c1c(F)cccc1F

>  <units-of-measure>
%

>  <CDK2 % Inhibition at 0.03 μM>
30

$$$$
>  <compound-structure>
Nc1nc(NC2CCN(C(=O)CCCC3CCCCC3)CC2)sc1C(=O)c1c(F)cccc1F

>  <units-of-measure>
%

>  <CDK2 % Inhibition at 0.03 μM>
18

$$$$
>  <compound-structure>
Nc1nc(NC2CCN(C(=O)c3cnn(-c4ccccc4)c3C(F)(F)F)CC2)sc1C(=O)c1c(F)cccc1F

>  <units-of-measure>
%

>  <CDK2 % Inhibition at 0.03 μM>
5

$$$$
>  <compound-structure>
Cc1ccc(Sc2ncccc2C(=O)N2CCC(Nc3nc(N)c(C(=O)c4c(F)cccc4F)s3)CC2)cc1

>  <units-of-measure>
%

>  <CDK2 % Inhibition at 0.03 μM>
49

$$$$
>  <compound-structure>
Cc1cccc(C(=O)N2CCC(Nc3nc(N)c(C(=O)c4c(F)cccc4F)s3)CC2)c1

>  <units-of-measure>
%

>  <CDK2 % Inhibition at 0.03 μM>
38

$$$$
>  <compound-structure>
Nc1nc(NC2CCN(C(=O)CCC3CCCC3)CC2)sc1C(=O)c1c(F)cccc1F

>  <units-of-measure>
%

>  <CDK2 % Inhibition at 0.03 μM>
13

$$$$
>  <compound-structure>
Nc1nc(NC2CCN(C(=O)c3cccnc3Cl)CC2)sc1C(=O)c1c(F)cccc1F

>  <units-of-measure>
%

>  <CDK2 % Inhibition at 0.03 μM>
25

$$$$
>  <compound-structure>
Cc1ccc(C(=O)N2CCC(Nc3nc(N)c(C(=O)c4c(F)cccc4F)s3)CC2)c(C)c1

>  <units-of-measure>
%

>  <CDK2 % Inhibition at 0.03 μM>
43

$$$$
